Where these numbers come from: the Immune Epitope Database (IEDB)

Below, each entry is listed with its recorded Kd.
Molecular target: HLA-A*03:01
Test: IEDB peptide-MHC binding, purified MHC/direct/fluorescence; filed as Kd, often an IC50 or EC50 that approximates it; bounds were set here for any values at or beyond the usual limits of such assays
Details: source organism: Vibrio parahaemolyticus

# input Recorded Kd of DQFSIPIRY , please.
# output ≥ 20 µM

# input Quick one: Kd of ISDPAFKVF ?
# output ≥ 20 µM

====

Biological target: HLA-B*15:01
Assay: IEDB peptide-MHC binding, purified MHC/competitive/fluorescence; filed as Kd, often an IC50 or EC50 that approximates it; bounds were set here for any values at or beyond the usual limits of such assays
Conditions: source organism: Entamoeba dispar SAW760
test readout: Kd

# input Entry LMTHTWHAK has what Kd?
# output ≥ 20 µM
